assay.target: human H3 receptor (Homo sapiens, UniProt Q9Y5N1)
Construct: purchased Perkin Elmer ES-392-M400UA; host or cells: CHO-K1 cells (recombinant expression), membrane preparation
Sequence (Q9Y5N1 whole entry): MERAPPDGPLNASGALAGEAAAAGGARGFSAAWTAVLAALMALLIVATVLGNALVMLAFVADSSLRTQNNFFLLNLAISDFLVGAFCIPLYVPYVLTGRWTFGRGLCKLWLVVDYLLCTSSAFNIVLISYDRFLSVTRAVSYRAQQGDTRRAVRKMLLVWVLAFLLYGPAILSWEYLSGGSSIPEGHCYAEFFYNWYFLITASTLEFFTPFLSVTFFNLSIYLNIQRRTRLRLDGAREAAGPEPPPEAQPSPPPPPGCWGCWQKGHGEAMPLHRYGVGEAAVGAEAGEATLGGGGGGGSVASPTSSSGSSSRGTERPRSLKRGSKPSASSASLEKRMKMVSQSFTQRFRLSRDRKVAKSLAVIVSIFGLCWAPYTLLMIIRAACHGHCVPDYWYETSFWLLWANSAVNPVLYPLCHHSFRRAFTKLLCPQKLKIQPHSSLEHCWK
assay: H3 Receptor Binding Test
details: 50% inhibition of R(−)-α-methyl[3H]histamine (1 nM) binding; membrane preparation of human H3 receptor-expressing CHO-K1 cells
parameter: IC50 (nM)

1 = C[C@@H]1CC[C@@H](C)N1CCCOc1ccc2c(c1)CCC(=O)N2c1ccc(F)cc1
2 = COc1ccc(N2C(=O)CCc3cc(OCCCN4CCC[C@H]4C)ccc32)c(OC)c1
// max by IC50 over [ 1 , 2 ] # respond with the chosen item's label
1
(1: 5 nM, 2: 2 nM)

----------
assay.target: human H3 receptor (Homo sapiens, UniProt Q9Y5N1)
Construct: purchased Perkin Elmer ES-392-M400UA; host or cells: CHO-K1 cells (recombinant expression), membrane preparation
assay: H3 Receptor Binding Test
details: 50% inhibition of R(−)-α-methyl[3H]histamine (1 nM) binding; membrane preparation of human H3 receptor-expressing CHO-K1 cells
parameter: IC50 (nM)

O=C1CCc2cc(OC3CCN(C4CCC4)CC3)ccc2N1c1cncc(F)c1: 1.4
C[C@@H]1CCCN1CCCOc1ccc2c(c1)CCC(=O)N2c1ccc2[nH]ccc2c1: 1.3
COc1ccc2ncc(N3C(=O)CCc4cc(OCCCN5CCC[C@H]5C)ccc43)cc2c1: 5.4

1 = C[C@@H]1CCCN1CCCOc1ccc2c(c1)CCC(=O)N2c1ccc(F)cc1F
2 = O=C1CCc2cc(OC3CCN(C4CCC4)CC3)ccc2N1c1cccc(F)c1
Lab log: flag the item ( 1 or 2 ) with the smaller IC50 figure. Use the label to indicate which entry you chose.
2

----------
assay.target: human H3 receptor (Homo sapiens, UniProt Q9Y5N1)
Construct: purchased Perkin Elmer ES-392-M400UA; host or cells: CHO-K1 cells (recombinant expression), membrane preparation
assay: H3 Receptor Binding Test
details: 50% inhibition of R(−)-α-methyl[3H]histamine (1 nM) binding; membrane preparation of human H3 receptor-expressing CHO-K1 cells
Experimental: A membrane preparation of human H3 receptor-expressing CHO-K1 cells (Perkin Elmer, ES-392-M400UA, 15 μg protein/200 μl), R(−)-α-methyl[^3H]histamine (Amersham, TRK-1017, specific activity: 1.74 TBq/mmol, 1 nM) and a test drug were reacted at room temperature for 1 hour. […] After washing, the glass filter was dried and a scintillator was added thereto, followed by measurement of radioactivity on the filter using a liquid scintillation counter. […]
pIC50: −log10 of the molar value.
parameter: pIC50

Some molecules with known pIC50 results, for comparison:
C[C@@H]1CCCN1CCCOc1ccc2c(c1)CCC(=O)N2c1ccc(Cl)cc1F: 8.96
C[C@@H]1CCCN1CCCOc1ccc2c(c1)CCC(=O)N2c1ccc2c(c1)OCCO2: 8.66
O=C1CCc2cc(OC3CCN(C4CCC4)CC3)ccc2N1c1ccc(F)cc1: 9.10
COCc1ccc(N2C(=O)CCc3cc(OCCCN4CCC[C@H]4C)ccc32)cc1: 8.54
C[C@@H]1CCCN1CCCOc1ccc2c(c1)CCC(=O)N2c1ccc(Cl)cn1: 8.40

P = C[C@@H]1CCCN1CCCOc1ccc2c(c1)CCC(=O)N2c1cncnc1
Q = C[C@@H]1CCCN1CCCOc1ccc2c(c1)CCC(=O)N2c1ccc(Cl)cc1
Given the two records P and Q , choose the one whose pIC50 value is lower. Give the label under which the chosen entry appears.
P
